System: Plasmodium falciparum
METHOD DESCRIPTION: In vitro antiplasmodial activity against chloroquine-sensitive Plasmodium falciparum Haiti 135
Format: functional, organism-based
Could you please report measured pIC50 for the items listed next?
Give bare numbers, as −log10 of the molar value.

Field: example entries. Status: answers known.
CCN(CC)CC(C)Nc1ccnc2cc(I)ccc12 (stereo unspecified)	8.15
CCN(CC)CCCCCCCCCCCCNc1ccnc2cc(Br)ccc12	8.10
CCN(CC)CC(C)Nc1ccnc2cc(F)ccc12 (stereo unspecified)	7.52
CCN(CC)CCCCCCCCCCCCNc1ccnc2cc(I)ccc12	8.00
CCN(CC)CCNc1ccnc2cc(Cl)ccc12	8.15

# ---- query compound ----
Requested field: pIC50. Item: CCN(CC)CCCCCCCCCCCCNc1ccnc2cc(OC)ccc12
7.77
